molecular target: MsEcR (GAL4-EcR DEF with VP16-RXR-USP chimera) (Manduca sexta, UniProt P49883); assay: Two-hybrid gene switch assay, luciferase reporter, MsEcR, mouse NIH3T3 cells; settings: EC50, FIG. 13A/13B, GAL4-EcR(DEF) with VP16-RXR-USP chimera
Sequence (P49883 whole entry, change not shown, the tested form may be a part): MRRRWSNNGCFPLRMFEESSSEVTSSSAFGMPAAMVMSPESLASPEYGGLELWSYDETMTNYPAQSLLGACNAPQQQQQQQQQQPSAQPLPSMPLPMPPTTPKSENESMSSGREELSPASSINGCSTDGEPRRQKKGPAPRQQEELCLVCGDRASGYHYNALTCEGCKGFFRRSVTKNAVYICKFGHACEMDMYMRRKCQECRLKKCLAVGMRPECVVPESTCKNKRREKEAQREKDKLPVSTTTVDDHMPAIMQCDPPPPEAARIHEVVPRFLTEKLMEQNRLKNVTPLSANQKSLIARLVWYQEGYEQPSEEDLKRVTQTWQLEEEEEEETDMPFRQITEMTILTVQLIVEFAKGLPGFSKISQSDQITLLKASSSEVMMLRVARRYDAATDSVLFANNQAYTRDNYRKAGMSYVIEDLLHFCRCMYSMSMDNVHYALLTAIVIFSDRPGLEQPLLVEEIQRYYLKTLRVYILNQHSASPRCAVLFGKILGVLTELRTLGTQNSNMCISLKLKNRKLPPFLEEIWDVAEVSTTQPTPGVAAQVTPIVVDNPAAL
Sequence (P28702 whole entry partner, the tested form may be a part): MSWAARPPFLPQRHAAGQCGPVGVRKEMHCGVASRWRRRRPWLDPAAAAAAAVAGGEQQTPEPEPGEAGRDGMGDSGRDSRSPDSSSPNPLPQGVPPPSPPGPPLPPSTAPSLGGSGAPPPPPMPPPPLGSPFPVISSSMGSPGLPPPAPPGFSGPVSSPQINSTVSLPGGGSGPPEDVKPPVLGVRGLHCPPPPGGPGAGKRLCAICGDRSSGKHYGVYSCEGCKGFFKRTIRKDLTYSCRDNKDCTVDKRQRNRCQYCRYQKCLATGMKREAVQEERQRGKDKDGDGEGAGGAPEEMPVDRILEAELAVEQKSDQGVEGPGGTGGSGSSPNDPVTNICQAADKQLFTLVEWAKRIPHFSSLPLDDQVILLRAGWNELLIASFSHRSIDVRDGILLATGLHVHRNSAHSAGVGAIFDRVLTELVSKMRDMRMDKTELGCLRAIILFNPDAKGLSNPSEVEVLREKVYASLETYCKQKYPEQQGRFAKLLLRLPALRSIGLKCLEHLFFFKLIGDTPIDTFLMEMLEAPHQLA
Catalogue of molecules with associated EC50

Sample answers from the record:
molecule	measured
CC(C)(O)CC[C@@H](O)[C@](C)(O)[C@H]1CC[C@@]2(O)C3=CC(=O)[C@H]4C[C@@H](O)[C@@H](O)C[C@]4(C)[C@H]3CC[C@]12C [(5a-H)-20-hydroxyecdysone]	> 33 µM
C=C(C)CC[C@@H](O)[C@](C)(O)[C@H]1CC[C@@]2(O)C3=CC(=O)[C@@H]4C[C@@H](O)[C@@H](O)C[C@]4(C)[C@H]3CC[C@]12C	0.608 µM
CC(C)(O)CCCC(C)(O)C1CCC2(O)C3=CC(=O)C4CC(O)C(O)CC4(C)C3CCC12C (centres unmarked)	~15 µM
CC(C)(O)CC[C@H]1OC(C)(C)O[C@]1(C)[C@H]1CC[C@@]2(O)C3=CC(=O)[C@@H]4C[C@@H](O)[C@@H](O)C[C@]4(C)[C@H]3CC[C@]12C [20-hydroxyecdysone-20,22-acetonide]	~12 µM

Below: the item to evaluate.
Exam item: Item CC(C)(O)CC[C@@H](O)[C@](C)(O)[C@H]1CC[C@@]2(O)C3=C[C@H](O)[C@@H]4C[C@@H](O)[C@@H](O)C[C@]4(C)[C@H]3CC[C@]12C [Compound 6a-hydroxy-20-hydroxyecdysone] has what recorded EC50?
Marked response: > 33 µM

* * *

biological target: Bemisia argentifolii EcR (BaEcR-DEF) (Bemisia argentifolii (Bemisia tabaci biotype B / MEAM1), UniProt A0A6M3RDR8); test: Two-hybrid gene switch assay, BaEcR-DEF in NIH3T3 cells; conditions: NIH3T3, 48 h, read-out: rel max FI (20E), BA
Listed here are compounds together with their documented Emax.
Write the number in % without appending the unit.

These solved cases illustrate the format of a correct answer.
compound	recordedEndpoint	valueUnits	measured
CO[C@H]1C[C@@]2(C)[C@@H](C[C@H]1O)C(=O)C=C1[C@@H]2CC[C@]2(C)[C@@H]([C@@](C)(O)[C@@H](CCC(C)(C)O)OC)CC[C@@]12O [20E-2,22-dimethyl ether]	Emax	%	24
CO[C@@H]1C[C@H]2C(=O)C=C3[C@H](CC[C@]4(C)[C@@H]([C@@](C)(O)[C@@H](CCC(C)(C)O)OC)CC[C@@]34O)[C@@]2(C)C[C@@H]1O [20E-3,22-dimethyl ether]	Emax	%	38
CO[C@@H]1C[C@H]2C(=O)C=C3[C@H](CC[C@]4(C)[C@@H]([C@@](C)(O)[C@H](O)CCC(C)(C)O)CC[C@@]34O)[C@@]2(C)C[C@@H]1O [20E-3-methyl ether]	Emax	%	29
CO[C@H]1C[C@@]2(C)[C@@H](C[C@H]1O)C(=O)C=C1[C@@H]2CC[C@]2(C)[C@@H]([C@@](C)(O)[C@H](O)CCC(C)(C)O)CC[C@@]12O [20E-2-methyl ether]	Emax	%	3

Query compound follows.
Exam item: Consider the compound CO[C@H](CCC(C)(C)O)[C@](C)(O)C1CC[C@@]2(O)C3=CC(=O)C4C[C@@H](O)[C@@H](O)CC4(C)C3CCC12C (some centres unmarked) [20E-22-methyl ether] and give its measured Emax.
Marked response: 154

* * *

target: wild-type Drosophila melanogaster EcR (DmEcR; GAL4-EcR DEF with VP16-RXR-USP chimera) (Drosophila melanogaster, UniProt P34021); test: Two-hybrid gene switch assay, luciferase reporter, wild-type DmEcR, mouse NIH3T3 cells; format: cell-based; conditions: EC50, FIG. 8
Sequence (P34021 with tags, fused parts or gaps limits assumed): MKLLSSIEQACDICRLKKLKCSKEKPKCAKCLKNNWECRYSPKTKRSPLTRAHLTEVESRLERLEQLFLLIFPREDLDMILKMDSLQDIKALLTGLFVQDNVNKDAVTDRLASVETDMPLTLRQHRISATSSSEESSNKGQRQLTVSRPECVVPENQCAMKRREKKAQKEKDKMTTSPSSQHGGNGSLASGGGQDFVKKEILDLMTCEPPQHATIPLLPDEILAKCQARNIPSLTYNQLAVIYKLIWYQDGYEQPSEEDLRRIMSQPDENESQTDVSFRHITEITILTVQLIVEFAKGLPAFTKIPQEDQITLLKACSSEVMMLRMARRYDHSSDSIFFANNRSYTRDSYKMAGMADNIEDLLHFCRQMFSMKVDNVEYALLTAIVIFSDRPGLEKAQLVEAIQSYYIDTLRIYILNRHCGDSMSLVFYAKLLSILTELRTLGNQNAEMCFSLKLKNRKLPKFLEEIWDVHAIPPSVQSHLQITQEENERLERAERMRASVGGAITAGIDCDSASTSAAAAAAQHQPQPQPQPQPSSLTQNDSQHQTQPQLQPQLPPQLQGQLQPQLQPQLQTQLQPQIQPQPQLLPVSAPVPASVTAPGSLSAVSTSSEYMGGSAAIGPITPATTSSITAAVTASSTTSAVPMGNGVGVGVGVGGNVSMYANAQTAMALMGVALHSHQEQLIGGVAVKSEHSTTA
recordedEndpoint: pEC50
Entry type: numeric. Quantity: pEC50, the -log10 of concentration in molar units.

                                   molecule  recordedendpoint  measured
0  COC(C)(C)CC[C@@H](O)[C@](C)(O)[C@H]1CC[C@@]2(O)C3=CC(=O)[C@@H]4C[C@@H](O)[C@@H](O)C[C@]4(C)[C@H]3CC[C@]12C             pEC50      5.26
1  CC(C)CCC(O)C(C)(O)C1CCC2(O)C3=CC(=O)C4(O)CC(O)C(O)CC4(C)C3C(O)CC12C (centres unmarked)             pEC50      6.95
2  CO[C@H](CCC(C)(C)OC)[C@](C)(O)[C@H]1CC[C@@]2(O)C3=CC(=O)[C@@H]4C[C@@H](O)[C@@H](O)C[C@]4(C)[C@H]3CC[C@]12C             pEC50      5.80

Exam item: Tell me the measured pEC50 of CCCCO[C@H](CCC(C)(C)O)[C@](C)(O)C1CC[C@@]2(O)C3=CC(=O)C4C[C@@H](O)[C@@H](O)CC4(C)C3CCC12C (some centres unmarked) , please.
Marked response: 4.84

* * *

Measured pEC50 of individual entries
target: wild-type Drosophila melanogaster EcR (DmEcR; GAL4-EcR DEF with VP16-RXR-USP chimera) (Drosophila melanogaster); experiment: Two-hybrid gene switch assay, luciferase reporter, wild-type DmEcR, mouse NIH3T3 cells; type: cell-based; settings: EC50, FIG. 16, GAL4-EcR (DEF) / VP16-RXR-USP chimera
API: returns pEC50 as number; meaning -log10 of concentration in mol/L.

compound	pEC50
CC(C)(O)CC[C@@H](O)[C@](C)(O)[C@H]1CC[C@@]2(O)C3=CC(=O)[C@]4(O)C[C@@H](O)[C@@H](O)C[C@]4(C)[C@H]3CC[C@]12C [polypodine B]	5.60

Exam item: Any idea what its pEC50 is? The compound is CC(C)CC[C@@H](O)[C@](C)(O)[C@H]1CC[C@@]2(O)C3=CC(=O)[C@@H]4C[C@@H](O)[C@@H](O)C[C@]4(C)[C@H]3CC[C@]12C [PoA, ponasterone A, reference compound]
Marked response: 6.08

* * *

Attribute: pEC50
Biological target: wild-type Choristoneura fumiferana EcR (CfEcR-DEF) (Choristoneura fumiferana)
Sequence (O77255 219-541): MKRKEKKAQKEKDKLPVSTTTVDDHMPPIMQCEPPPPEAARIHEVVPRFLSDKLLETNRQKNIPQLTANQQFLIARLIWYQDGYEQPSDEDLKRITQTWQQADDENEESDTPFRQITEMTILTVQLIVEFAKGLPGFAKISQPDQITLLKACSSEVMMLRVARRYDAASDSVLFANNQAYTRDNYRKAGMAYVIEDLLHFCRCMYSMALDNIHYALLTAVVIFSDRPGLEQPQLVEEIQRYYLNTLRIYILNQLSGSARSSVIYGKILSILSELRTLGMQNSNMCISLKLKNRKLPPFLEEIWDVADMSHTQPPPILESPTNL
Sequence (P28702 299-449 partner): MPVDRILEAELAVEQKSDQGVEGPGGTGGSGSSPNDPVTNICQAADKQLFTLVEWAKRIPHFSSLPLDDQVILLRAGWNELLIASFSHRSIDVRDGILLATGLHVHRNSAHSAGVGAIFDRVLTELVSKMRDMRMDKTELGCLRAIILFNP
Assay: Two-hybrid gene switch assay, wild-type CfEcR-DEF (GAL4-EcR / VP16-RXR-USP chimera, luciferase) in NIH3T3 cells
pEC50: −log10 of the molar value.

Recorded pEC50, per entry:
compound	target	pEC50
CCO[C@H](CCC(C)(C)O)[C@](C)(O)C1CC[C@@]2(O)C3=CC(=O)C4C[C@@H](O)[C@@H](O)CC4(C)C3CCC12C (stereo partly drawn) [compound 5, 20-hydroxyecdysone-22-ethyl ether]	wild-type Choristoneura fumiferana EcR (CfEcR-DEF) (Choristoneura fumiferana)	5.31
CO[C@H](CCC(C)C)[C@](C)(O)[C@H]1CC[C@@]2(O)C3=CC(=O)[C@@H]4C[C@@H](O)[C@@H](O)C[C@]4(C)[C@H]3CC[C@]12C	wild-type Choristoneura fumiferana EcR (CfEcR-DEF) (Choristoneura fumiferana)	~5.70
CO[C@H]1C[C@@]2(C)[C@@H](C[C@H]1O)C(=O)C=C1[C@@H]2CC[C@]2(C)[C@@H]([C@@](C)(O)[C@@H](CCC(C)(C)O)OC)CC[C@@]12O [20E-2,22-dimethyl ether]	wild-type Choristoneura fumiferana EcR (CfEcR-DEF) (Choristoneura fumiferana)	< 4.48
COC(C)(C)CCC(O)C(C)(O)C1CCC2(O)C3=CC(=O)C4CC(O)C(O)CC4(C)C3CCC12C (stereo not drawn) [20E-25-methyl ether]	wild-type Choristoneura fumiferana EcR (CfEcR-DEF) (Choristoneura fumiferana)	< 4.48

Exam item: # query: pEC50 | item CO[C@H]1C[C@@]2(C)[C@@H](C[C@H]1O)C(=O)C=C1[C@@H]2CC[C@]2(C)[C@@H]([C@@](C)(O)[C@H](O)CCC(C)(C)O)CC[C@@]12O [20E-2-methyl ether] | system: wild-type Choristoneura fumiferana EcR (CfEcR-DEF) (Choristoneura fumiferana)
Marked response: < 4.48

Exam item: pEC50 of CC(C)(O)CCC(O)C(C)(O)C1CCC2(O)C3=CC(=O)C4CC(O)C(O)CC4(C)C3CCC12C (stereo not drawn) [20E, 20-hydroxyecdysone] on wild-type Choristoneura fumiferana EcR (CfEcR-DEF) (Choristoneura fumiferana)?
Marked response: < 4.48
